TARGET_DESC: A2B receptor (Homo sapiens)
Construct: host or cells: CHO-K1 (co-expressing Gα15)
PROCEDURE_SUMMARY: Test 1: inhibitory activity to the A2B receptor, cAMP HTRF in CHO-K1/ADORA2B/Gα15 cells, NECA 10 nM
Format: cell-based
Description: Test 1: Inhibitory Activities to the A2A Receptor and the A2B Receptor CHO-K1/ADORA2A/Gα15 (GenScript, M00246) and CHO-K1/ADORA2B/Gα15 (GenScript, M00329) cells were cultured in a Ham's F-12 (Gibco, 31765092) medium containing 10% FBS, Zeocin (200 ug/mL), and Hygromycin B (100 ug/mL), or containing 10% FBS, G418 (400 ug/mL), and Hygromycin B (100 ug/mL) under culture conditions specified in the corresponding instruction. Screening procedure was as follows: 1. […]
Each record here notes measured IC50.
# unit: µM | format: bare number

Take a look at these entries with their results.
Cc1c(C#N)cccc1-c1nc(N)c(Cl)c(-c2cn(Cc3cccn(CC(C)(C)O)c3=O)nn2)n1 : 0.007
Cc1c(C#N)cccc1-c1nc(N)c(F)c(-c2cn(Cc3cc(F)n(C)n3)nn2)n1 : 0.021
Cc1c(C#N)cccc1-c1nc(N)c(F)c(-c2cn(Cc3cccc(C(N)=O)n3)nn2)n1 : 0.024
Cc1c(C#N)cccc1-c1nc(N)c(F)c(-c2cn(Cc3cccc(CN4CCOCC4)n3)nn2)n1 : 0.013

The recorded IC50 for Cc1c(C#N)cccc1-c1nc(N)c(F)c(-c2cn(Cc3cccc(C4(O)CCCC4)n3)nn2)n1 is 0.011

The recorded IC50 for Cc1c(C#N)cccc1-c1nc(N)c(F)c(-c2cn(Cc3ccn(CCF)n3)nn2)n1 is 0.002

The recorded IC50 for Cc1c(C#N)cccc1-c1nc(N)c(F)c(-c2cn(Cc3cccc(C(C)(C)C#N)n3)nn2)n1 is 0.004

The recorded IC50 for Cc1c(C#N)cccc1-c1nc(N)c(F)c(-c2cn(Cc3ccn(CC(F)(F)F)n3)nn2)n1 is 0.007

The recorded IC50 for CCc1nccc(Cn2cc(-c3nc(-c4cccc(C#N)c4C)nc(N)c3Cl)nn2)n1 is 0.014

The recorded IC50 for Cc1c(C#N)cccc1-c1nc(N)c(F)c(-c2cn(Cc3ccn(CC(N)=O)n3)nn2)n1 is 0.008

The recorded IC50 for Cc1c(C#N)cccc1-c1nc(N)c(Cl)c(-c2cn(Cc3cccc(C(C)(C)O)n3)nn2)n1 is 0.004

The recorded IC50 for Cc1c(C#N)cccc1-c1nc(N)c(F)c(-c2cn(Cc3nn(C)cc3F)nn2)n1 is 0.013

The recorded IC50 for Cc1c(C#N)cccc1-c1nc(N)c(F)c(-c2cn(Cc3cccc(N4CCOCC4)n3)nn2)n1 is 0.02

The recorded IC50 for Cc1c(C#N)cccc1-c1nc(N)c(F)c(-c2cn(Cc3ccn(CC(C)C)n3)nn2)n1 is 0.01

----------
TARGET_DESC: A2B receptor (Homo sapiens, UniProt P29275)
Construct: host or cells: CHO-K1 (co-expressing Gα15)
Sequence (P29275 whole entry): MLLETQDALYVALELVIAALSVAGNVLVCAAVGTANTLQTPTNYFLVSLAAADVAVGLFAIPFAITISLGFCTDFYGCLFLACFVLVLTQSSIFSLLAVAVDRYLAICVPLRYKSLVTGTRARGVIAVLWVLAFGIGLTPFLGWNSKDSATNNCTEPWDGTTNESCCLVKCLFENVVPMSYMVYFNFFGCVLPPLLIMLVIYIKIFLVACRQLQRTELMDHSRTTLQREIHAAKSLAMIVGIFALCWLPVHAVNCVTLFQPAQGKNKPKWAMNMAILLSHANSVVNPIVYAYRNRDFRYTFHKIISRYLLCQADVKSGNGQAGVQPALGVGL
PROCEDURE_SUMMARY: Test 1: inhibitory activity to the A2B receptor, cAMP HTRF in CHO-K1/ADORA2B/Gα15 cells, NECA 10 nM
Format: cell-based
Each record here notes measured IC50.
# unit: µM | format: bare number

Take a look at these entries with their results.
Cc1c(C#N)cccc1-c1nc(N)c(F)c(-c2cn(Cc3ccn(C4CC(F)(F)C4)n3)nn2)n1 [Compound L-19] : 0.006
Cc1c(C#N)cccc1-c1nc(N)c(F)c(-c2cn(Cc3ccn(C4CCOC4)n3)nn2)n1 [Compound L-77] : 0.003
Cc1c(C#N)cccc1-c1nc(N)c(Cl)c(-c2cn(Cc3cccn(C)c3=O)nn2)n1 [Compound L-13] : 0.013

The recorded IC50 for Cc1c(C#N)cccc1-c1nc(N)c(F)c(-c2cn(Cc3cc[nH]n3)nn2)n1 [Compound L-27] is 0.002

The recorded IC50 for Cc1c(C#N)cccc1-c1nc(N)c(F)c(-c2cn(Cc3ccn(C(C)C)n3)nn2)n1 [Compound L-75] is 0.0005

The recorded IC50 for Cc1c(C#N)cccc1-c1nc(N)c(F)c(-c2cn(Cc3ccn(CC(F)F)n3)nn2)n1 [Compound L-44] is 0.004

The recorded IC50 for Cc1c(C#N)cccc1-c1nc(N)c(F)c(-c2cn(Cc3ccn(C)n3)nn2)n1 [Compound L-67] is 0.007

The recorded IC50 for Cc1c(C#N)cccc1-c1nc(N)c(F)c(-c2cn(Cc3ccn(C(C)(C)C)n3)nn2)n1 [Compound L-51] is 0.006

The recorded IC50 for CCn1ccc(Cn2cc(-c3nc(-c4cccc(C#N)c4C)nc(N)c3F)nn2)n1 [Compound L-30] is 0.001

----------
TARGET_DESC: A2A receptor (Homo sapiens, UniProt P29274)
Construct: host or cells: CHO-K1 (co-expressing Gα15)
Sequence (P29274 whole entry): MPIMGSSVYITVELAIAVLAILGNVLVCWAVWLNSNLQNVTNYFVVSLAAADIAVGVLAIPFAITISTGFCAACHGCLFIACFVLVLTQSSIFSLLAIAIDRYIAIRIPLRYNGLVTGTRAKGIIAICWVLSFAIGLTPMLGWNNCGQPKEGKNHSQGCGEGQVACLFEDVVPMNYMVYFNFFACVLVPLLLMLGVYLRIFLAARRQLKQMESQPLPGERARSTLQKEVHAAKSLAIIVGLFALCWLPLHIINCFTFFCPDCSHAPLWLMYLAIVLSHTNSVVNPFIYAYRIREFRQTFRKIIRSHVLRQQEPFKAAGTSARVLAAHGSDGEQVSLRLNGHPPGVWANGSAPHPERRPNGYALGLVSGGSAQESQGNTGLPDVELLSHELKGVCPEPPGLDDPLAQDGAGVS
PROCEDURE_SUMMARY: Test 1: inhibitory activity to the A2A receptor, cAMP HTRF in CHO-K1/ADORA2A/Gα15 cells, NECA 50 nM
Type: cell-based
VALUE_TYPE: IC50 (µM)
# unit: µM | format: bare number

Take a look at these entries with their results.
Cc1c(C#N)cccc1-c1nc(N)c(F)c(-c2cn(Cc3ccn(CC(C)(C)O)n3)nn2)n1 [Compound L-76] : 0.005
Cc1c(C#N)cccc1-c1nc(N)c(Cl)c(-c2cnn(Cc3ccn(C)n3)c2)n1 [Compound L-33] : 0.002
Cc1c(C#N)cccc1-c1nc(N)c(F)c(-c2cn(Cc3cccc(C4(O)COC4)n3)nn2)n1 [Compound L-53] : 0.002
Cc1c(C#N)cccc1-c1nc(N)c(F)c(-c2cn(Cc3cccc(CN4CCN(C)CC4)n3)nn2)n1 [Compound L-71] : 0.006
Cc1c(C#N)cccc1-c1nc(N)c(F)c(-c2cn(Cc3ccn(CC#N)n3)nn2)n1 [Compound L-97] : 0.006

The recorded IC50 for Cc1c(C#N)cccc1-c1nc(N)c(F)c(-c2cn(Cc3cccc(C(C)(C)CO)n3)nn2)n1 [Compound L-63] is 0.001

----------
TARGET_DESC: A2A receptor (Homo sapiens, UniProt P29274)
Construct: host or cells: CHO-K1 (co-expressing Gα15)
PROCEDURE_SUMMARY: Test 1: inhibitory activity to the A2A receptor, cAMP HTRF in CHO-K1/ADORA2A/Gα15 cells, NECA 50 nM
Assay type: cell-based
Each record here notes measured IC50.
Form entry: enter the amount, then its unit.

Cc1c(C#N)cccc1-c1nc(N)c(F)c(-c2cn(Cc3ccn(C(C)(C)C)n3)nn2)n1 : 0.03 µM
Cc1c(C#N)cccc1-c1nc(N)c(Cl)c(-c2cn(Cc3cccn(C)c3=O)nn2)n1 : 0.001 µM
Cc1c(C#N)cccc1-c1nc(N)c(Cl)c(-c2cn(Cc3cc(C(C)(C)O)[nH]n3)nn2)n1 : 0.01 µM

Proceeding to the next compound to report its IC50.
The recorded IC50 for Cc1c(C#N)cccc1-c1nc(N)c(F)c(-c2cn(Cc3nn(C)cc3F)nn2)n1 is 0.015 µM

----------
PROCEDURE_SUMMARY: Test 3: in-vivo pharmacokinetics test in mice (plasma, LC/MS/MS)
EXPERIMENTAL_PARAMETERS: mouse, po, male ICR mice, intragastric administration 10 mg/kg, read-out: Area under the curve AUClast
Outcome label depends on AUC(0-t) relative to 20 µg·h/mL: at/above gives rule met, below gives rule not met.

Example cases with answers are listed next.
Cc1c(C#N)cccc1-c1nc(N)c(F)c(-c2cn(Cc3ccn(CCF)n3)nn2)n1 : rule not met
Cc1c(C#N)cccc1-c1nc(N)c(Cl)c(-c2cn(Cc3cc(C(C)(C)O)n(C)n3)nn2)n1 : rule not met

### Prompt Determine whether measured AUC(0-t) meets or exceeds 20 µg·h/mL for Cc1c(C#N)cccc1-c1nc(N)c(F)c(-c2cn(Cc3ccn(C)n3)nn2)n1
### Response rule not met

### Prompt Determine whether measured AUC(0-t) meets or exceeds 20 µg·h/mL for Cc1c(C#N)cccc1-c1nc(N)c(F)c(-c2cn(Cc3ccn(C4CC4)n3)nn2)n1
### Response rule not met

### Prompt Determine whether measured AUC(0-t) meets or exceeds 20 µg·h/mL for Cc1c(C#N)cccc1-c1nc(N)c(Cl)c(-c2cn(Cc3ccn(C)n3)nn2)n1
### Response rule met

### Prompt Determine whether measured AUC(0-t) meets or exceeds 20 µg·h/mL for Cc1c(C#N)cccc1-c1nc(N)c(Cl)c(-c2cn(Cc3cccc(C(C)(C)O)n3)nn2)n1
### Response rule met

----------
Each record here notes measured IC50.
TARGET_DESC: A2A receptor (Homo sapiens, UniProt P29274)
Construct: host or cells: CHO-K1 (co-expressing Gα15)
PROCEDURE_SUMMARY: Test 1: inhibitory activity to the A2A receptor, cAMP HTRF in CHO-K1/ADORA2A/Gα15 cells, NECA 50 nM
Assay type: cell-based
# unit: µM | format: bare number

Cc1c(C#N)cccc1-c1nc(N)c(F)c(-c2cn(Cc3ccn(CC4CCCO4)n3)nn2)n1 [Compound L-83] : 0.003
Cc1c(C#N)cccc1-c1nc(N)c(F)c(-c2cn(Cc3cc(C4CC4)n(C)n3)nn2)n1 [Compound L-92] : 0.011

The recorded IC50 for CCc1nccc(Cn2cc(-c3nc(-c4cccc(C#N)c4C)nc(N)c3Cl)nn2)n1 [Compound L-11] is 0.001

The recorded IC50 for Cc1c(C#N)cccc1-c1nc(N)c(F)c(-c2cn(Cc3cccc(C4(O)CCCC4)n3)nn2)n1 [Compound L-66] is 0.003

The recorded IC50 for Cc1c(C#N)cccc1-c1nc(N)c(F)c(-c2cn(Cc3cccc(C4(O)CCC4)n3)nn2)n1 [Compound L-64] is 0.001

The recorded IC50 for Cc1c(C#N)cccc1-c1nc(N)c(F)c(-c2cn(Cc3ccn(C4CC(F)(F)C4)n3)nn2)n1 [Compound L-19] is 0.003

The recorded IC50 for Cc1c(C#N)cccc1-c1nc(N)c(F)c(-c2cn(Cc3cc[nH]n3)nn2)n1 [Compound L-27] is 0.007
